B1: r16_88_TrROS_Hall (parent)
chain: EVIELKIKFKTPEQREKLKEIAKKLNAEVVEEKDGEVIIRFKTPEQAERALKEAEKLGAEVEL

# Variants of: B1
# Protocol Summary: folding stability dG (cDNA display proteolysis); higher = more stable
# Assay Conditions: PBS, room temperature
Measurement Label: folding stability dG (kcal/mol)

>>> print(df.to_string())
    mutant  measured_result
 0     E4H             4.42
 1    E36Y             4.89
 2    E32T             4.52
 3    A50G             4.46
 4    A22P              3.7
 5    E53M             4.39
 6    L63H             4.59
 7    E20W             4.75
 8    A47C             4.46
 9     F9H             4.19
10    E31D             4.45
11    Q14Y             4.18
12    E32A             4.34
13    E55P             3.67
14    R40V             4.64
15    K23S             4.55
16    K33Q             4.49
17     E1Q             4.25
18    D34A             4.32
19    A47W             4.78
20    L57Q             4.25
21    Q46G             4.48
22    D34K             4.19
23     F9Q             3.28
24    K52S             4.28
25     K8C             4.15
26    G58M             4.33
27    R49L             4.53
28    K17Q             4.42
29    A54R              3.4
30     K8D             3.72
31    G58S             4.43
32     F9M             3.98
33    A47S             4.39
34     E4C             4.76
35     L5E             3.72
36    E62L             4.21
37    N26V             4.35
38     E1S             4.32
